Assignment: determine reported Ratio for the given molecules.
target: Neutrophil elastase (Homo sapiens) (UniProt P08246); experiment: Inhibition of human leukocyte elastase at 25 uM assessed as Kinact/Ki ratio incubated for 15 mins by spectrofluorometry
Sequence (P08246 whole entry): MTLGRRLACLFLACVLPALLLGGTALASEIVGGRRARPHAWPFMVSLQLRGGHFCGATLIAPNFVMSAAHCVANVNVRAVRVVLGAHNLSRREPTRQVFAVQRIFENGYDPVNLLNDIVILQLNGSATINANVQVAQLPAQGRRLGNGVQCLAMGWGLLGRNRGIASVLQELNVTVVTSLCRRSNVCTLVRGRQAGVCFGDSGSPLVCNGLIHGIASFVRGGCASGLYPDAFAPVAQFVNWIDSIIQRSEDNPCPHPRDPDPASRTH
Answers are plain numbers, in M⁻¹ s⁻¹.

Worked set:
CSc1ccc(OP(=O)(Oc2ccc(SC)cc2)C(NC(=O)[C@@H]2CCCN2C(=O)CNC(=O)OCc2ccccc2)C(C)C)cc1 (mixture of isomers)    39000
CSc1ccc(OP(=O)(Oc2ccc(SC)cc2)C(NC(=O)[C@@H]2CCCN2C(=O)[C@@H](NC(=O)COc2ccc(OCC(=O)O)cc2)C(C)C)C(C)C)cc1 (mixture of isomers)    970000

Please look at the following molecule next.
For record `CSc1ccc(OP(=O)(Oc2ccc(SC)cc2)[C@H](NC(=O)[C@@H]2CCCN2C(=O)[C@@H](NC(=O)Cn2cc(C)c(=O)n(CC(=O)O)c2=O)C(C)C)C(C)C)cc1` the listed Ratio is 4100
